Reference source for all entries: ChEMBL document CHEMBL1129983

Biological target: Cysteinyl leukotriene receptor 1 (Cavia porcellus)
Assay: Displacement of [3H]LTD4 from Cysteinyl leukotriene D4 receptor in guinea pig lung membranes
Just a reminder that ties go to Criterion not met: only Kd strictly below 400 nM counts as Criterion met.

Consider the compound "N#Cc1ccc(O)c(C(=O)/C=C/c2ccc(OCc3ccc4ccccc4n3)cc2)c1" . Is its Kd strictly less than 400 nM?
Criterion not met

Here is the next compound: "O=C(O)c1cccc(C(=O)/C=C/c2cccc(/C=C/c3ccc4ccccc4n3)c2)c1O"
Criterion met

Here is the next compound: "O=C(O)c1cccc(C(=O)/C=C/c2ccc(/C=C/c3ccc4ccccc4n3)cc2)c1O"
Criterion met

Here is the next compound: "COc1ccc(C(=O)O)cc1C(=O)/C=C/c1ccc(OCc2ccc3ccccc3n2)cc1"
Criterion met

Here is the next compound: "O=C(O)c1cc(Br)cc(C(=O)/C=C/c2cccc(OCc3ccc4ccccc4n3)c2)c1O"
Criterion met

Here is the next compound: "CCOCCn1c(COc2cccc(/C=C/C(=O)c3cc(-c4nn[nH]n4)ccc3O)c2)nc2ccccc21"
Criterion not met

Here is the next compound: "O=C(O)c1cc(Br)cc(C(=O)/C=C/c2ccc(OCc3ccc4ccccc4n3)cc2)c1O"
Criterion not met

Here is the next compound: "O=C(O)c1cc(F)cc(C(=O)/C=C/c2cccc(/C=C/c3ccc4ccccc4n3)c2)c1O"
Criterion met

Here is the next compound: "O=C(O)COc1ccc(C(=O)/C=C/c2cccc(/C=C/c3ccc4ccccc4n3)c2)c(O)c1"
Criterion met

Here is the next compound: "O=C(O)c1cc(Br)cc2c(=O)cc(-c3ccc4ccccc4n3)oc12"
Criterion not met

Here is the next compound: "O=C(/C=C/c1cccc(/C=C/c2ccc3ccccc3n2)c1)c1cc(-c2nn[nH]n2)ccc1O"
Criterion met

Here is the next compound: "O=C(O)c1ccc(O)c(C(=O)/C=C/c2ccc(/C=C/c3ccc4ccccc4n3)cc2)c1"
Criterion not met
